Test: Plasma and lung epithelial lining fluid (ELF) concentrations in ICR mice, 20 mg/kg IP
Format: in vivo, mouse
Details: ICR, mouse, lung epithelial lining fluid (ELF); 20 mg/kg IP; read-out: mean ELF AUC
Experimental: At pre-dose, 1, 3, 6, 12, 24, 48, and 72 hours post-dose, 3 mice/timepoint were anesthetized/euthanized for blood collection (plasma) and bronchoalveolar lavage fluid (BALF) collection with 2×0.5 mL flushes of saline. Urea levels for plasma/BALF normalization for the volume of lung epithelial lining fluid (ELF) calculation were quantified using a commercially-available spectrophotometry-based assay. […] Urea for plasma/BALF normalization for ELF volume were quantified using spectrophotometry. […]
Starred links: 1 amine or outer side, 2 acyl side, 3 side chain; linkers in the order of their positions; H or OH if unused. Positions of bridges follow the written chain, without caps; N, C: chain ends. Non-standard residues stand in square brackets, D forms with d. Residues, ends and D or L forms follow the SMILES beside them. *: point of attachment. Orn(4R-OH,5R-OCH2CH2NMe3+) = C[N+](C)(C)CCO[C@@H](N[*:3])[C@H](O)C[C@H](N[*:1])C(=O)[*:2]; pTerphenylCO(4''-OnC5H11) = CCCCCOc1ccc(-c2ccc(-c3ccc(C(=O)*)cc3)cc2)cc1; hTyr(3S-OH,4S-OH) = N[C@H](C(=O)O)[C@H](O)[C@@H](O)c1ccc(O)cc1; Pro(3S-OH,4S-Me) = C[C@H]1CN[C@H](C(=O)O)[C@H]1O; Hyp = O=C(O)[C@@H]1C[C@@H](O)CN1
readout kind: AUC (µg·h/mL)
Field: numeric (µg·h/mL). Do not append units.

Looking for the measured AUC of CCCCCOc1ccc(-c2ccc(-c3ccc(C(=O)N[C@H]4C[C@@H](O)[C@@H](OCC[N+](C)(C)C)NC(=O)[C@@H]5[C@@H](O)[C@@H](C)CN5C(=O)[C@H]([C@@H](C)O)NC(=O)[C@H]([C@H](O)[C@@H](O)c5ccc(O)cc5)NC(=O)[C@@H]5C[C@@H](O)CN5C(=O)[C@H]([C@@H](C)O)NC4=O)cc3)cc2)cc1 [CD101] ({pTerphenylCO(4''-OnC5H11)}-[Orn(4R-OH,5R-OCH2CH2NMe3+)]T[Hyp][hTyr(3S-OH,4S-OH)]T[Pro(3S-OH,4S-Me)]; lactam 1-C) , can you help?
802

Data provenance is patent US20190307843A1.
